Organism: Homo sapiens
assay.explanation: Inhibitory activity against platelet aggregation, induced by arachidonic acid in human platelet rich plasma
Type: functional
measurement.parameters: read-out: I50
pIC50: −log10 of the molar value.
Parameter: pIC50. Scope: all listed entries.
measured.property: pIC50

| molecule | reported.value |
| --- | --- |
| O=C(O)CCc1ccccc1CC1C2CCC(O2)C1c1nc(C(=O)NCCc2ccc(Cl)cc2)co1 (stereo not drawn) | 8.40 |
| O=C(O)CCc1ccccc1CC1C2CCC(O2)C1c1nc(C(=O)Nc2ccccc2)co1 (stereo not drawn) | 7.92 |
| CC(C)(C)NC(=O)c1coc(C2C3CCC(O3)C2Cc2ccccc2CCC(=O)O)n1 (stereo not drawn) | 7.92 |

----------
Species: Homo sapiens
assay.explanation: Inhibitory activity against platelet aggregation, induced by arachidonic acid in human platelet rich plasma
Format: functional
measurement.parameters: read-out: I50
measured.property: IC50 (nM)

| compound | measured.property | unit.spec | reported.value |
| --- | --- | --- | --- |
| CC(C)(C)CCCCNC(=O)c1coc(C2C3CCC(O3)C2Cc2ccccc2CCC(=O)O)n1 (centres undefined) | IC50 | nM | 8 |
| O=C(O)CCc1ccccc1CCC1C2CCC(O2)C1c1nc(C(=O)NCCCCC2CCCCC2)co1 (centres undefined) | IC50 | nM | 63 |
| CC(C)(Cc1ccccc1CC1C2CCC(O2)C1c1nc(C(=O)NCCCCC2CCCCC2)co1)C(=O)O (centres undefined) | IC50 | nM | 4 |
| CSc1ccc(CCCCNC(=O)c2coc(C3C4CCC(O4)C3Cc3ccccc3CCC(=O)O)n2)cc1 (centres undefined) | IC50 | nM | 6 |
| CCOC(=O)CCc1ccccc1CC1C2CCC(O2)C1c1nc(C(=O)NCCCCC2CCCCC2)co1 (centres undefined) | IC50 | nM | 290 |
| COc1ccc(CCCCNC(=O)c2coc(C3C4CCC(O4)C3Cc3ccccc3CCC(=O)O)n2)cc1 (centres undefined) | IC50 | nM | 16 |
| COc1ccc(NC(=O)c2coc(C3C4CCC(O4)C3Cc3ccccc3CCC(=O)O)n2)cc1 (centres undefined) | IC50 | nM | 6 |
| CS(=O)(=O)c1ccc(CCCCNC(=O)c2coc(C3C4CCC(O4)C3Cc3ccccc3CCC(=O)O)n2)cc1 (centres undefined) | IC50 | nM | 26 |
| O=C(O)Cc1cccc(CC2C3CCC(O3)C2c2nc(C(=O)NCCCCC3CCCCC3)co2)c1 (centres undefined) | IC50 | nM | 12 |

----------
Parameter: IC50. Scope: all listed entries.
Species: Homo sapiens
assay.explanation: Inhibitory activity against platelet aggregation, induced by arachidonic acid in human platelet rich plasma
Type: functional
measurement.parameters: read-out: I50
measured.property: IC50 (nM)

| compound | measured.property | reported.value |
| --- | --- | --- |
| O=C(O)Cc1cccc(CCC2C3CCC(O3)C2c2nc(C(=O)NCCCCC3CCCCC3)co2)c1 (centres undefined) | IC50 | 146 |
| O=C(O)c1cccc(CCC2C3CCC(O3)C2c2nc(C(=O)NCCCCC3CCCCC3)co2)c1 (centres undefined) | IC50 | 110 |
| O=C(O)Cc1ccccc1CC1C2CCC(O2)C1c1nc(C(=O)NCCCCC2CCCCC2)co1 (centres undefined) | IC50 | 14 |
| CCC(C)(C)NC(=O)c1coc(C2C3CCC(O3)C2Cc2ccccc2CCC(=O)O)n1 (centres undefined) | IC50 | 12 |
| O=C(O)CCc1ccccc1CC1C2CCC(O2)C1c1nc(C(=O)NCCCCN2CCCCC2)co1 (centres undefined) | IC50 | 30 |
| CCCNC(=O)c1coc(C2C3CCC(O3)C2Cc2ccccc2CCC(=O)O)n1 (centres undefined) | IC50 | 8 |
| O=C(NCCCCC1CCCCC1)c1coc(C2C3CCC(O3)C2Cc2ccccc2C(=O)O)n1 (centres undefined) | IC50 | 52 |
| NC(=O)CCc1ccccc1CC1C2CCC(O2)C1c1nc(C(=O)NCCCCC2CCCCC2)co1 (centres undefined) | IC50 | 1070 |
| CS(=O)(=O)NC(=O)CCc1ccccc1CC1C2CCC(O2)C1c1nc(C(=O)NCCCCC2CCCCC2)co1 (centres undefined) | IC50 | 2 |
| O=C(O)CCc1ccccc1CC1C2CCC(O2)C1c1nc(C(=O)NCCCCc2ccccc2)co1 (centres undefined) | IC50 | 4 |
| O=C(O)CCc1ccccc1CC1C2CCC(O2)C1c1nc(C(=O)NCCCCC(F)(F)F)co1 (centres undefined) | IC50 | 12 |
| CC(C)NC(=O)c1coc(C2C3CCC(O3)C2Cc2ccccc2CCC(=O)O)n1 (centres undefined) | IC50 | 7 |
| O=C(O)CCc1ccccc1CC1C2CCC(O2)C1c1nc(C(=S)NCCCCC2CCCCC2)co1 (centres undefined) | IC50 | 2 |
| O=C(O)CCc1ccccc1CC1C2CCC(O2)C1c1nc(C(=O)NCCC2CCCCC2)co1 (centres undefined) | IC50 | 2 |
| O=C(O)CCCc1ccccc1CC1C2CCC(O2)C1c1nc(C(=O)NCCCCC2CCCCC2)co1 (centres undefined) | IC50 | 6 |
| NC(=O)c1coc(C2C3CCC(O3)C2Cc2ccccc2CCC(=O)O)n1 (centres undefined) | IC50 | 44 |
| O=C(O)CCc1ccccc1CC1C2CCC(O2)C1c1nc(C(=O)NCCCCc2ccc(O)cc2)co1 (centres undefined) | IC50 | 12 |
| O=C(O)CCc1ccccc1CC1C2CCC(O2)C1c1nc(/C=C/CCCCC2CCCCC2)co1 (centres undefined) | IC50 | 320 |
| CC(C)(CCCCNC(=O)c1coc(C2C3CCC(O3)C2Cc2ccccc2CCC(=O)O)n1)C(=O)O (centres undefined) | IC50 | 64 |
